This section presents molecules with their documented IC50 values.
# tested.target: eeAChE (AChE from electrophorus electricus) (Electrophorus electricus, UniProt O42275)
# Construct: purchased Sigma-Aldrich (St. Louis, MO, USA)
# Sequence (O42275 24-633): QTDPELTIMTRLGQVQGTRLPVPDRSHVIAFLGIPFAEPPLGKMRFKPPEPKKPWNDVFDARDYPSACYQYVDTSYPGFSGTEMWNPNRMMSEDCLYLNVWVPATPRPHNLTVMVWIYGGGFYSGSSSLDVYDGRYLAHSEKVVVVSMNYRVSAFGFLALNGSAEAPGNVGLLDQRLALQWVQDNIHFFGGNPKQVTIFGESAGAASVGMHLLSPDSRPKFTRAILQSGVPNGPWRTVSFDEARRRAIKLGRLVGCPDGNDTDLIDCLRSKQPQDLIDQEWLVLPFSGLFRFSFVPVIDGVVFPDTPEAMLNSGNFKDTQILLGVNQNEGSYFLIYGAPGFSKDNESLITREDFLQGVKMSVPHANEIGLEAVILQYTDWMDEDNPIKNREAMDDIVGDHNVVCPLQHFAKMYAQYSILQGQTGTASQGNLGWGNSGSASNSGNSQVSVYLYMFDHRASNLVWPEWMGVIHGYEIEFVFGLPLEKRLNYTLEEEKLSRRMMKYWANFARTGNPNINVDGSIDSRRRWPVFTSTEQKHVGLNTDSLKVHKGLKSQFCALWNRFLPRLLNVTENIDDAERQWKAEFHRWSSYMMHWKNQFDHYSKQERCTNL
# assay.comment: biochemical
# Assay type: biochemical
# protocol.conditions: IC50 eeAChE, mean (CI 95%), Ellman's method, ATCI substrate, 30 °C
Remember to put the unit after the number in your answer.

Some solved cases for reference:
1) O=C(Cc1ccc(O)c(O)c1)NCCCCCCCCCC[P+](c1ccccc1)(c1ccccc1)c1ccccc1 [Compound 12] : 2.44 µM
2) O=C(Cc1cc(O)c(O)c(O)c1)NCCCCCCCCCC[P+](c1ccccc1)(c1ccccc1)c1ccccc1 [Compound 9] : 3.35 µM

Okay, now this molecule:
// recorded IC50 for O=C(Cc1cc(O)c(O)c(O)c1)NCCCCCC[P+](c1ccccc1)(c1ccccc1)c1ccccc1 [Compound 3] : 8.98 µM

====

# tested.target: eqBChE (BChE from equine serum) (Equus caballus, UniProt P81908)
# Construct: BChE from equine serum (eqBChE); purchased Sigma-Aldrich (St. Louis, MO, USA); host or cells: equine serum
# Sequence (P81908 whole entry): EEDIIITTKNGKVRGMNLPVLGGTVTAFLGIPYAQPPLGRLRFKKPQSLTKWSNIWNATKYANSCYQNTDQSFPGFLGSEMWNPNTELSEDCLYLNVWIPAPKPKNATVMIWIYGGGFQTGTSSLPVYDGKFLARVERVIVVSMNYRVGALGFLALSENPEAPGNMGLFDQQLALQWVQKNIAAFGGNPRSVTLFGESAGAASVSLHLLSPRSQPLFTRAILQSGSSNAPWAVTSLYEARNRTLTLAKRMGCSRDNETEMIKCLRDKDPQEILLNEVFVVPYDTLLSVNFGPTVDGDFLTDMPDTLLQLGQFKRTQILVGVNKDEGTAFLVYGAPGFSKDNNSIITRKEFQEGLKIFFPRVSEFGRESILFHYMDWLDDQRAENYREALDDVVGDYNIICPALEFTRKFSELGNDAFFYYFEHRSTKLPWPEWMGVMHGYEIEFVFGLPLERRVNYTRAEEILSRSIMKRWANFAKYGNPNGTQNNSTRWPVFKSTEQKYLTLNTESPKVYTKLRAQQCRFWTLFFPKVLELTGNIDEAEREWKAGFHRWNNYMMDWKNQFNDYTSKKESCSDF
# assay.comment: biochemical
quantity.name: IC50
Could you kindly put the unit after your number?

A selection of reference data follows.
1. O=C(Cc1cc(O)c(O)c(O)c1)NCCCCCC[P+](c1ccccc1)(c1ccccc1)c1ccccc1 : 4520 nM
2. O=C(CCc1cc(O)c(O)c(O)c1)NCCCCCCCCCC[P+](c1ccccc1)(c1ccccc1)c1ccccc1 : 800 nM
3. O=C(CCc1ccc(O)c(O)c1)NCCCCCC[P+](c1ccccc1)(c1ccccc1)c1ccccc1 : 2520 nM
4. O=C(Cc1ccc(O)c(O)c1)NCCCCCC[P+](c1ccccc1)(c1ccccc1)c1ccccc1 : 930 nM
5. O=C(Cc1ccc(O)c(O)c1)NCCCCCCCCCC[P+](c1ccccc1)(c1ccccc1)c1ccccc1 : 240 nM
6. O=C(Cc1cc(O)c(O)c(O)c1)NCCCCCCCCCC[P+](c1ccccc1)(c1ccccc1)c1ccccc1 : 530 nM

Now for a further compound.
Please fill in: IC50 reported for O=C(CCc1cc(O)c(O)c(O)c1)NCCCCCC[P+](c1ccccc1)(c1ccccc1)c1ccccc1 = 3160 nM

====

# tested.target: eqBChE (BChE from equine serum) (Equus caballus)
# Construct: BChE from equine serum (eqBChE); purchased Sigma-Aldrich (St. Louis, MO, USA); host or cells: equine serum
# assay.comment: biochemical
# protocol.conditions: Ellman's method, BTCI substrate, 30 °C; read-out: IC50 eqBChE, mean (CI 95%)
quantity.name: IC50 (nM)
Please state the figure in nM; there is no need to write the unit.

Sample answers from the record:
1. O=C(CCc1ccc(O)c(O)c1)NCCCCCCCCCC[P+](c1ccccc1)(c1ccccc1)c1ccccc1 : 320
2. O=C(/C=C/c1cc(O)c(O)c(O)c1)NCCCCCCCCCC[P+](c1ccccc1)(c1ccccc1)c1ccccc1 : 110
3. O=C(/C=C/c1cc(O)c(O)c(O)c1)NCCCCCC[P+](c1ccccc1)(c1ccccc1)c1ccccc1 : 410
4. O=C(/C=C/c1ccc(O)c(O)c1)NCCCCCCCCCC[P+](c1ccccc1)(c1ccccc1)c1ccccc1 : 150

Entry under test: O=C(/C=C/c1ccc(O)c(O)c1)NCCCCCC[P+](c1ccccc1)(c1ccccc1)c1ccccc1 . Its IC50 was 120
